Cited source for all entries: PubChem BioAssay

# experiment: SK-BR-3 cell growth inhibitors, pilot screen, 24 h, human (AID 572);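 further: compound exposure lasted between 18 and 24 h rather than exactly 24 h; 100% = carrier-treated control wells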
# experimentalContext: SK-BR-3 viability, CellTiter-Glo luminescence, at 10 µM, stronger effect = lower value
Each entry below carries its recorded viability.
Provide the reading as a plain figure in %.

A selection of reference data follows.
Q: Could you please provide reported viability for `COc1ccccc1C(=O)Nc1ccc(N2CCN(Cc3ccccc3)CC2)cc1` ? Thanks!
A: 81.5

Q: // fetch viability given entry `CCN(CC)CC(=O)Nc1ccc(-c2nc3cc(NC(=O)CN(CC)CC)ccc3o2)cc1`
A: 91

Continuing:
Q: Please give measured viability of the following entry: `O=C(O)c1ccc(CSc2ncn[nH]2)cc1`
A: 107

Q: Give recorded viability. `COc1cc(NC(=O)c2cccs2)cc(OC)c1`
A: 72

Q: For the compound `CC1(C)Cc2c(C#N)c(SCCC#N)nc(N3CCOCC3)c2CS1` , report viability.
A: 83

Q: Give the reported value of viability for this record: `CCc1nnc(NC(=O)CSc2nnc(-c3cc4ccccc4cc3O)n2CC)s1`
A: 84

Q: Provide measured viability value, entry: CCOC(=O)CC(NS(=O)(=O)c1ccc(NC(C)=O)cc1)c1ccc(OCC)cc1 (stereo not given)
A: 115
